Taken from paper PMC7355546.

I'd appreciate it if you could supply IC50 at 72 h values for the items below.
Test: In vitro cytotoxicity with L-6 cells (resazurin)
Assay type: cell-based
Conditions: L-6 cells (rat skeletal myoblasts), unit inferred, the other IC50 columns are µM, read-out: L6 Cells (cytotoxicity IC50)
Give bare numbers, in µM.

Previously resolved entries follow.
COc1cc(CC(C)C(CO)Cc2ccc(O)c(OC)c2)ccc1O (stereo not drawn) [Compound 10, 3,3′-dimethoxy-4,4′-dihydroxylignan-9-ol] | 128
COc1cc(/C=C/C(=O)NCCCCNC(=O)/C=C/c2ccc(O)c(OC)c2)ccc1O | 146
CCOC(CNC(=O)/C=C/c1ccc(O)c(OC)c1)c1ccc(O)cc1 (stereo not drawn) | 208

Let's switch to this compound now.
Given item COc1cc([C@H]2O[C@@H](c3cc(OC)c(O)c(OC)c3)[C@@H](C)[C@@H]2C)cc(OC)c1O , the value recorded as its IC50 at 72 h is 163

###

I'd appreciate it if you could supply IC50 values for the items below.
System: T. b. rhodesiense (STIB 900) bloodstream forms
Assay: Activity against Trypanosoma brucei rhodesiense bloodstream forms (resazurin)
Format: cell-based
Conditions: STIB 900 bloodstream forms; mean of at least two independent replicates ± absolute deviation; read-out: T. b. rhodesiense IC50
Numbers only, in µM.

COc1cc(/C=C/C(=O)NCCCCNC(=O)/C=C/c2ccc(O)c(OC)c2)ccc1O [Compound 8, N,N′-diferuloylputrescine] | 18.9

Let's switch to this molecule now.
Field IC50 (system: T. b. rhodesiense (STIB 900) bloodstream forms) for entry COc1cc(CC(C)C(CO)Cc2ccc(O)c(OC)c2)ccc1O (centres unmarked) [Compound 10, 3,3′-dimethoxy-4,4′-dihydroxylignan-9-ol] = 27.5

###

Tested on: P. falciparum (NF54)
Assay: Activity against Plasmodium falciparum erythrocytic stages (3H-hypoxanthine incorporation)
Assay type: cell-based
Conditions: Plasmodium falciparum, NF54, NF54; mean of at least two independent replicates ± absolute deviation; read-out: P. falciparum IC50
Quick rule for you: IC50 under 70 µM gets Condition met, anything else gets Condition not met.

Below, 3 compounds whose answers are already recorded.
COc1cc(CCC(=O)NCCc2ccc(O)cc2)ccc1O [Compound 5, dihydro-feruloyltyramine] | Condition not met
COc1cc([C@H]2O[C@H](c3cc(OC)c(O)c(OC)c3)[C@@H](C)[C@@H]2C)cc(OC)c1O | Condition met
COc1cc([C@H]2O[C@@H](c3ccc(O)c(OC)c3)[C@@H](C)[C@H]2C)ccc1O [Compound 1, tetrahydrofuroguaiacin B] | Condition met

Would you kindly look at the next entry?
Asked: Quick check: IC50 of COc1cc(C(=O)/C(C)=C(/C)C(=O)c2ccc(O)c(OC)c2)ccc1O under 70 µM?
Given back: Condition met

###

Test: In vitro cytotoxicity with L-6 cells (resazurin)
Assay type: cell-based
Conditions: rat skeletal myoblasts; unit inferred, the other IC50 columns are µM; read-out: L6 Cells (cytotoxicity IC50)
I'd appreciate it if you could supply IC50 at 72 h values for the items below.
Give bare numbers, in µM.

Previously resolved entries follow.
COc1cc(/C=C/C(=O)NCCc2ccc(O)cc2)ccc1O [Compound 6, (E)-N-feruloyltyramine] | 247
COc1cc([C@H]2O[C@@H](c3ccc(O)c(OC)c3)[C@@H](C)[C@H]2C)ccc1O [Compound 1, tetrahydrofuroguaiacin B] | 95.2
COc1cc([C@H]2O[C@@H](c3ccc(O)c(OC)c3)[C@H](C)[C@@H]2C)ccc1O | 115

Let's switch to this compound now.
Given item COc1cc([C@@H]2c3cc4c(cc3[C@H](O)[C@H]3COC(=O)[C@H]23)OCO4)cc(OC)c1OC [podophyllotoxin, reference compound] , the value recorded as its IC50 at 72 h is 0.03
